Listed here: items and their measured IC50.
target: UniProt P0DTD1; test: SARS-CoV-2 3CLpro protease assay (duplex, SAMDI-MS); type: biochemical; design: For the duplex assay, 3CLpro and HRV3C was added; details: 3CLpro, 30 mins preincubation, class symbols; read-out: SARS-Cov-2 IC50
MEASURED_ENDPOINT: IC50

In [3]: df
Out[3]:
                                   molecule  measured_target          result
0  COc1cc(Cl)cc2[nH]c(C(=O)N3C[C@@H]4CCC[C@@H]4[C@H]3C(=O)N[C@H](C#N)C[C@@H]3CCNC3=O)cc12 [Compound 192]   UniProt P0DTD1  200 to 2000 nM
1  O=C(NCc1ccccc1)C(=O)[C@H](C[C@@H]1CCNC1=O)NC(=O)[C@@H]1C[C@@]2(CN1C(=O)c1cc3ccccc3[nH]1)CC2(F)F [Compound 23]   UniProt P0DTD1    20 to 200 nM
2  O=C1NCC[C@H]1C[C@H](NC(=O)[C@@H]1[C@H]2CCC[C@H]2CN1C(=O)c1cc2c(Cl)c(F)cc(Cl)c2[nH]1)C(=O)CO [Compound 122]   UniProt P0DTD1    20 to 200 nM
3  N#C[C@H](C[C@@H]1CCNC1=O)NC(=O)[C@@H]1[C@H]2CCC[C@H]2CN1C(=O)c1cc2c(Cl)ccc(C(F)(F)F)c2[nH]1 [Compound 175]   UniProt P0DTD1  200 to 2000 nM
4  COc1cccc2oc(C(=O)N3C[C@@H]4CCC[C@@H]4[C@H]3C(=O)N[C@@H](C[C@@H]3CCNC3=O)C(=O)CO)cc12 [Compound 94]   UniProt P0DTD1  200 to 2000 nM
